# target: HLA-B*15:01
# assay-notes: IEDB peptide-MHC binding, purified MHC/direct/fluorescence; filed as Kd, often an IC50 or EC50 that approximates it; bounds were set here for any values at or beyond the usual limits of such assays
# test-parameters: source organism: Reston ebolavirus - Reston
measured-endpoint: Kd (nM)
Give just the number in nM; leave the unit off.

# lookup: Kd of GVPPKVVSY
2560

====

# target: HLA-A*02:01
# assay-notes: IEDB peptide-MHC binding, purified MHC/direct/fluorescence; filed as Kd, often an IC50 or EC50 that approximates it; bounds were set here for any values at or beyond the usual limits of such assays
# test-parameters: source organism: Camelpox virus M-96
measured-endpoint: Kd

YLSSWTPVV ... ≤ 0.001 µM

Alright, here's another sequence for you.
Field request: Kd | item: VMCIQMKYV
≥ 20 µM

====

# target: HLA-B*15:17
# assay-notes: IEDB peptide-MHC binding, purified MHC/direct/fluorescence; filed as Kd, often an IC50 or EC50 that approximates it; bounds were set here for any values at or beyond the usual limits of such assays
# test-parameters: source organism: West Nile virus
pKd: −log10 of the molar value.
measured-endpoint: pKd

Consider the sequence ITYTDVLRY and give its measured pKd.
≥ 9.00

====

// log10(Kd) lookup, one value per entry
# target: HLA-B*45:01
# assay-notes: IEDB peptide-MHC binding, purified MHC/competitive/radioactivity; filed as Kd, often an IC50 or EC50 that approximates it; bounds were set here for any values at or beyond the usual limits of such assays
# test-parameters: source organism: SARS coronavirus Tor2
Field: value | Transform: log10 | Quantity: Kd | Unit: µM

Below, each entry is followed by its recorded log10(Kd) result.
KELSPRWYFY ... 0.63
VEYPIIGDEL ... 0.35
AEIRASANLA ... -2.33
WEIQQVVDA ... -0.87
SEMVMCGGSL ... -1.79

Now for another entry.
Item TERLKLFAA has what recorded log10(Kd)?
-2.33

====

# target: HLA-A*02:06
# assay-notes: IEDB peptide-MHC binding, purified MHC/direct/fluorescence; filed as Kd, often an IC50 or EC50 that approximates it; bounds were set here for any values at or beyond the usual limits of such assays
# test-parameters: source organism: Cryptosporidium parvum Iowa II
measured-endpoint: Kd

What Kd value was documented for this sequence, KQMSQPYAV ?
≤ 1 nM

====

# target: HLA-A*01:01
# assay-notes: IEDB peptide-MHC binding, purified MHC/competitive/fluorescence; bounds were set here for any values at or beyond the usual limits of such assays
# test-parameters: source organism: Zaire ebolavirus
measured-endpoint: IC50 (µM)
Please respond with the number in µM and leave the unit unwritten.

// returns reported IC50 for input LTESDMDYH
41.6

====

# target: HLA-A*11:01
# assay-notes: IEDB peptide-MHC binding, purified MHC/competitive/fluorescence; filed as Kd, often an IC50 or EC50 that approximates it; bounds were set here for any values at or beyond the usual limits of such assays
# test-parameters: source organism: Influenza A virus H3N2
measured-endpoint: pKd
Lab note — pKd values are minus log10 of concentrations in M.

Name the recorded pKd for SFGGFTFK .
7.35

====

# target: HLA-A*01:01
# assay-notes: IEDB peptide-MHC binding, purified MHC/direct/fluorescence; filed as Kd, often an IC50 or EC50 that approximates it; bounds were set here for any values at or beyond the usual limits of such assays
# test-parameters: source organism: Giardia lamblia ATCC 50803
measured-endpoint: Kd

Here is how some sequences turned out for Kd.
SVKERGPAY ... ≥ 20 µM
LPVFATIGL ... ≥ 20 µM

Dear colleague, I am looking for the recorded Kd of the following sequence: RPRGHREFC
≥ 20 µM
